- STUDY TARGET: PDE1A (Homo sapiens, UniProt P54750)
- Sequence (P54750 whole entry): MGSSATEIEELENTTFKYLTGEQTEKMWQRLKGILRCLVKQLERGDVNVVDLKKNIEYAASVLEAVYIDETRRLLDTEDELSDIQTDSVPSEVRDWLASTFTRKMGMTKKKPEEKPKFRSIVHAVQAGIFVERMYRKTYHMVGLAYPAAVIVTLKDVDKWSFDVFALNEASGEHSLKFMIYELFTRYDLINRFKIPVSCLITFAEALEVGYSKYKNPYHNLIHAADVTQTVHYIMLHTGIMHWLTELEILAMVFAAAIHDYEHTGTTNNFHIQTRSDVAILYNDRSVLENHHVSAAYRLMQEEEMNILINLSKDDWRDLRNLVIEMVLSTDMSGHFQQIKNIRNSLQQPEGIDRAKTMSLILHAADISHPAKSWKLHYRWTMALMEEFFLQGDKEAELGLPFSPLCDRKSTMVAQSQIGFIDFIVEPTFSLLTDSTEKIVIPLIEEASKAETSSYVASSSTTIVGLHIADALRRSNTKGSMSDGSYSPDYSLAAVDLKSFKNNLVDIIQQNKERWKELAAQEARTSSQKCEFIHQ
- MEASUREMENT DESCRIPTION: Inhibition of human PDE1A at 100 uM
QUANTITY: inhibition at 100 µM (%)

MOLECULE	QUANTITY	OBSERVED MEASUREMENT
COc1cc2c(cc1OC1CCCC1)CN1C(=O)OCC1C2 (racemic)	inhibition at 100 µM	12

* * *

- STUDY TARGET: PDE10A (Homo sapiens, UniProt Q9Y233)
- Sequence (Q9Y233 whole entry): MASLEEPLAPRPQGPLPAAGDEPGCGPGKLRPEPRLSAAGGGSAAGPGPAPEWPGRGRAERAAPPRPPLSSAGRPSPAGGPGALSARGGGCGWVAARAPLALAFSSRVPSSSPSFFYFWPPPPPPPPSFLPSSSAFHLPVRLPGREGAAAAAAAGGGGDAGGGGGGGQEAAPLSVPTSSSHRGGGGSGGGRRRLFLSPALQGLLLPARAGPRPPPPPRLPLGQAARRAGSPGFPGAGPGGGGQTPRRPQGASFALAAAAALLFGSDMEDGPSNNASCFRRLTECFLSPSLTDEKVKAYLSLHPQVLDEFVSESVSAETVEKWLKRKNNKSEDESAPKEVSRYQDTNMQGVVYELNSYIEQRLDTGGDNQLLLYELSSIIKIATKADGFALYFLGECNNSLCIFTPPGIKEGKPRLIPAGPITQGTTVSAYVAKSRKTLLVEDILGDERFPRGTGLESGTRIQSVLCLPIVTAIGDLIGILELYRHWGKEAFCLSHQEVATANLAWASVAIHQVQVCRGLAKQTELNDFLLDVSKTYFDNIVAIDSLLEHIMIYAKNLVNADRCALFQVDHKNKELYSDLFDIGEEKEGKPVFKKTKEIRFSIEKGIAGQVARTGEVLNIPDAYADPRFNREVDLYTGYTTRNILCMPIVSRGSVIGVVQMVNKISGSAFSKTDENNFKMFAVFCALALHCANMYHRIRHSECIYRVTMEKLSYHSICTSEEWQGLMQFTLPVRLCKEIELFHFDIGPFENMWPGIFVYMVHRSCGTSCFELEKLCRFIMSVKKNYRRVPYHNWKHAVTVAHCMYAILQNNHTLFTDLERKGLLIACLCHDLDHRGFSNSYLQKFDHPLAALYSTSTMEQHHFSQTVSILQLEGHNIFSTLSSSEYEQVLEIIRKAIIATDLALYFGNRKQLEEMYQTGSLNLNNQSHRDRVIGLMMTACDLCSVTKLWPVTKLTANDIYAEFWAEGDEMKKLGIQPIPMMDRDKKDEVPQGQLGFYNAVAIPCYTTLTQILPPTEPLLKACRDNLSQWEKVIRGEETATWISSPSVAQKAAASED
- MEASUREMENT DESCRIPTION: Inhibition of human PDE10A at 100 uM

COMPOUND	inhibition at 100 µM [%]
COc1cc2c(cc1OC1CCCC1)CN1C(=O)OCC1C2 (racemic)	1
